tested on: Vibrio cholerae; assay: growth AUC normalised to DMSO control (fraction of control); higher = less growth inhibition, active = hit call of the paper; settings: 20 µM
Counter-ions that a name gives are not always drawn.
Let's look at some compounds and their measured growth AUC normalised to DMSO control.
OUTCOME MEASURE: growth AUC normalised to DMSO control

COMPOUND	OUTCOME MEASURE	NUMERIC READOUT
NS(=O)(=O)c1cc(C(=O)O)cc(N2CCCC2)c1Oc1ccccc1 [Piretanide]	growth AUC normalised to DMSO control	1.08
CN1C(=O)OC(C)(C)C1=O	growth AUC normalised to DMSO control	0.982
Cn1c(=O)c2nc[nH]c2n(C)c1=O [Theophylline monohydrate]	growth AUC normalised to DMSO control	1.07
NC(=O)c1cc[n+](CC2=C(C(=O)[O-])N3C(=O)[C@@H](NC(=O)[C@@H](c4ccccc4)S(=O)(=O)O)[C@H]3SC2)cc1 [Cefsulodin sodium salt]	growth AUC normalised to DMSO control	0.976
CC(=O)Nc1c(I)c(C(=O)N[C@H]2C(O)O[C@H](CO)[C@@H](O)[C@@H]2O)c(I)c(N(C)C(C)=O)c1I (stereo not given in full) [Metrizamide]	growth AUC normalised to DMSO control	0.988
